Entries and their polymerase ribozyme fitness (log ratio)
B1: TPR 5TU (parent)
chain: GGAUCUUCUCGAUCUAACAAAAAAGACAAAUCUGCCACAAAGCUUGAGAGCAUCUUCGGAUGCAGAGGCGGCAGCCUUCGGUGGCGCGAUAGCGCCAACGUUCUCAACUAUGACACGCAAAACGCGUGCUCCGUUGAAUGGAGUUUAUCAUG

- Variants of: B1
- Assay overview: polymerase ribozyme fitness, log enrichment relative to wild type (log ratio); higher = more active; in vitro selection for triplet polymerase activity
Variants at the floor of the assay were thinned out.
Kindly provide the number alone.

Here's what some known entries look like.
          variant_identifier  measured_number
0  A17U C18U A20G C93U A115G            -4.19
1             C14U A47C G84A            -2.49
2             G58C A60G C75U             0.32
3     U56G C103A A122U U146A            -2.78
4                 U55A U127G            -2.72
5         A3U U31C C57U G86A            -1.99
6                  A17U U55A            -1.08
7       A16G A41C U55G A142C            -3.52

Attention now shifts to the item below.
Given the variant C51U G94A C118U , write its reported polymerase ribozyme fitness (log ratio).
-1.44
